# experimentalDetails: Apparent permeability from apical to basolateral side in human Caco2 cells by LC-MS/MS analysis
# Format: ADME, cell-based
# testConditions: Caco-2
measurementName: Papp A→B
State the result as a value with its unit after it.

## Task For Cc1nn(-c2ncnc3nc[nH]c23)c2c1C(c1ccc(F)cc1Cl)CC(=O)N2 (stereo unspecified) , write its Papp A→B.
## Result 25 ×10⁻⁶ cm/s

###

# targetEntity: G-protein coupled receptor 39 (Homo sapiens, UniProt O43194)
# Sequence (O43194 whole entry): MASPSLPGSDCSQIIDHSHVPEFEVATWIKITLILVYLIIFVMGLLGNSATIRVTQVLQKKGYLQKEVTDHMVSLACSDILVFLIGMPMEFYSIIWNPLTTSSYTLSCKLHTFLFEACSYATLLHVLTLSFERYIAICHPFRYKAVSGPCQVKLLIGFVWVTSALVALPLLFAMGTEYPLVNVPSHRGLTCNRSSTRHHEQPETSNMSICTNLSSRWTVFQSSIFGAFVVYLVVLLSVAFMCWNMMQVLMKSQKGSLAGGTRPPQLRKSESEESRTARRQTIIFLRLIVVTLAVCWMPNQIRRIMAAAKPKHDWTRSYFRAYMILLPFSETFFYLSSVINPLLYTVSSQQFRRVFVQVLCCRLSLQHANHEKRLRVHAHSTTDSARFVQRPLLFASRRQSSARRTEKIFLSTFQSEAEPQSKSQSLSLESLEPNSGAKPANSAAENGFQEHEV
# experimentalDetails: Agonist activity at human GPR39 expressed in HEK293 cells co-expressing Galphaq assessed as myo-[2-3H]inositol phosphate accumulation measured after 75 mins by scintillation proximity assay
# Type: functional, cell-based
Please use yes (1) for EC50 under 100 nM and no (0) for everything else, ties included.

Some solved entries appear below for comparison.
1. Cc1nn(-c2ncnc3nc[nH]c23)c2c1C(OCc1ccccc1Cl)CC(=O)N2 (centres undefined)	yes (1)
2. Cc1nn(-c2ncnc3nc[nH]c23)c2c1C(NC(=O)Cc1cccs1)CC(=O)N2 (centres undefined)	no (0)
3. Cc1nn(-c2ncnc3nc[nH]c23)c2c1C(NC(=O)Cc1ccccc1)CC(=O)N2 (centres undefined)	no (0)
4. Cc1nn(-c2ncnc3nc[nH]c23)c2c1C(C(=O)NCc1ccc3c(c1)OCO3)CC(=O)N2 (centres undefined)	no (0)
5. Cc1cc(C)nc(-n2nc(C)c3c2NC(=O)CC3c2ccc(COc3cccc(Cl)c3)cc2)n1 (centres undefined)	no (0)
6. Cc1nn(-c2ncnc3nc[nH]c23)c2c1C(OCc1ccc(C(C)C)cc1)CC(=O)N2 (centres undefined)	no (0)
7. Cc1nn(-c2ncnc3nc[nH]c23)c2c1C(OCc1ccc(Cl)cc1Cl)CC(=O)N2 (centres undefined)	no (0)
8. Cc1nn(-c2ncnc3nc[nH]c23)c2c1C(c1ccc(F)cc1Cl)CC(=O)N2 (centres undefined)	no (0)
9. Cc1nn(-c2ncnc3nc[nH]c23)c2c1C(OCCc1ccccc1)CC(=O)N2 (centres undefined)	yes (1)
10. Cc1nn(-c2ncnc3nc[nH]c23)c2c1C(OCc1cc(F)cc3c1OCOC3)CC(=O)N2 (centres undefined)	yes (1)

## Task Report whether reported EC50 is lower than 100 nM (strictly) for COc1ccc(CCOC2CC(=O)Nc3c2c(C)nn3-c2ncnc3nc[nH]c23)cc1 (centres undefined)
## Result yes (1)

## Task Report whether reported EC50 is lower than 100 nM (strictly) for Cc1nn(-c2ncnc3nc[nH]c23)c2c1C(OCc1ccc(C#N)cc1)CC(=O)N2 (centres undefined)
## Result yes (1)

## Task Report whether reported EC50 is lower than 100 nM (strictly) for Cc1nn(-c2ncnc3nc[nH]c23)c2c1C(c1ccc(OC(C)C)cc1)CC(=O)N2 (centres undefined)
## Result no (0)

## Task Report whether reported EC50 is lower than 100 nM (strictly) for Cc1nn(-c2ncnc3nc[nH]c23)c2c1C(C(=O)NCc1ccc(F)cc1)CC(=O)N2 (centres undefined)
## Result no (0)

## Task Report whether reported EC50 is lower than 100 nM (strictly) for CCC(C(=O)NC1CC(=O)Nc2c1c(C)nn2-c1ncnc2nc[nH]c12)c1ccccc1 (centres undefined)
## Result yes (1)

## Task Report whether reported EC50 is lower than 100 nM (strictly) for Cc1nn(-c2ncnc3nc[nH]c23)c2c1C(OCCn1nccc1C)CC(=O)N2 (centres undefined)
## Result no (0)

## Task Report whether reported EC50 is lower than 100 nM (strictly) for Cc1nn(-c2ncnc3nc[nH]c23)c2c1C(OC(=O)c1ccc(F)cc1)CC(=O)N2 (centres undefined)
## Result no (0)

## Task Report whether reported EC50 is lower than 100 nM (strictly) for Cc1nn(-c2ncnc3nc[nH]c23)c2c1C(C(=O)N(C)c1ccccc1)CC(=O)N2 (centres undefined)
## Result no (0)

## Task Report whether reported EC50 is lower than 100 nM (strictly) for Cc1nn(-c2ncnc3nc[nH]c23)c2c1C(OCc1ccc(F)cc1)CC(=O)N2 (centres undefined)
## Result no (0)
